Assay: recombinant UMI read abundance after kanamycin selection (control-corrected) (log10(CPM+1)); higher = more efficient recombination; extreme values may be limits of the assay; sequences stand for … in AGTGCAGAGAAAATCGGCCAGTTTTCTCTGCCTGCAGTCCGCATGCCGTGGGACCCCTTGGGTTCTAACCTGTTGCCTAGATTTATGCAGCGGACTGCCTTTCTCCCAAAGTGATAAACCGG…AGGTTGGTTTCACT; site = the 11-nt donor;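 further: IS621 bridge recombinase in Escherichia coli cells against a fixed T5 target plasmid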
Label rule, in plain words: recombinant UMI read abundance (log10) of 0.01 and up is satisfied, under 0.01 is not satisfied.

## Task Form field: recombinant UMI read abundance (log10) at least 0.01? Entry: CGGAATCCATGGACCGGTTTTCCCGGTAATCCGTATTTGTA (site CGGAATCCTAA)
## Result not satisfied

## Task Form field: recombinant UMI read abundance (log10) at least 0.01? Entry: GGTCCAACATGGACCGGTTTTCCCGGTAATCCGTATTTGAA (site GGTCCAACTTT)
## Result satisfied

## Task Form field: recombinant UMI read abundance (log10) at least 0.01? Entry: CAAGCAGCATGGACCGGTTTTCCCGGTAATCCGTATTTGTT (site CAAGCAGCTAG)
## Result satisfied

###

Experiment: recombinant UMI read abundance after kanamycin selection (control-corrected) (log10(CPM+1)); higher = more efficient recombination; extreme values may be limits of the assay; sequences stand for … in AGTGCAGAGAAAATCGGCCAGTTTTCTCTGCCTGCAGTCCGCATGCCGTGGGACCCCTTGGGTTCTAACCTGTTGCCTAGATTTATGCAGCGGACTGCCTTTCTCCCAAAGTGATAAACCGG…AGGTTGGTTTCACT; site = the 11-nt donor
outcome_measure: recombinant UMI read abundance (log10)
Respond numerically, and do not add a unit to the figure.

Worked examples follow.
GTCTATACATGGACCGGTTTTCCCGGTAATCCGTATTTGAC (site GTCTATACTGT)	2.33
TCCAATTCATGGACCGGTTTTCCCGGTAATCCGTATTTGCT (site TCCAATTCTAG)	0

// recombinant UMI read abundance (log10) lookup, sequence = GAGCACGCATGGACCGGTTTTCCCGGTAATCCGTATTTGGG (site CAGCACGCTCC) , result: 0.0292

// recombinant UMI read abundance (log10) lookup, sequence = CTCTACACATGGACCGGTTTTCCCGGTAATCCGTATTTGGT (site CTCTACACTAA) , result: 0.0359

// recombinant UMI read abundance (log10) lookup, sequence = AGTTGTACATGGACCGGTTTTCCCGGTAATCCGTATTTGGT (site AGTTGTACTAC) , result: 0.56

// recombinant UMI read abundance (log10) lookup, sequence = CGTTCGACATGGACCGGTTTTCCCGGTAATCCGTATTTGTT (site CGCTCGACTAA) , result: 0.0144

// recombinant UMI read abundance (log10) lookup, sequence = TACTTGCCATGGACCGGTTTTCCCGGTAATCCGTATTTGCT (site TACTTGTCTAG) , result: 0.383

// recombinant UMI read abundance (log10) lookup, sequence = CCGTTAGCATGGACCGGTTTTCCCGGTAATCCGTATTTGTA (site CCGTTAGCTAA) , result: 0.0181

// recombinant UMI read abundance (log10) lookup, sequence = GCATCAGCATGGACCGGTTTTCCCGGTAATCCGTATTTGTG (site GCATCAGCTCA) , result: 1.49

// recombinant UMI read abundance (log10) lookup, sequence = GCTCCGACATGGACCGGTTTTCCCGGTAATCCGTATTTGGA (site GCTCCGACTTC) , result: 0.0323

// recombinant UMI read abundance (log10) lookup, sequence = CGGAATCCATGGACCGGTTTTCCCGGTAATCCGTATTTGAT (site CGGAATCCTAG) , result: 0

###

Recorded recombinant UMI read abundance (log10) by entry
Experiment: recombinant UMI read abundance after kanamycin selection (control-corrected) (log10(CPM+1)); higher = more efficient recombination; extreme values may be limits of the assay; sequences stand for … in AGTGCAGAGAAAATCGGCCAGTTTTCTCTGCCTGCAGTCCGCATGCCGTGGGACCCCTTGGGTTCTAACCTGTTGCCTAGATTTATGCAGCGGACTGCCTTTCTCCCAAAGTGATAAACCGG…AGGTTGGTTTCACT; site = the 11-nt donor

AGGAAAACATGGACCGGTTTTCCCGGTAATCCGTATTTGCA (site AGGAAGACTTG)	0
TTTCCCGCATGGACCGGTTTTCCCGGTAATCCGTATTTGTC (site TTTCCCGCTGA)	1.42

// recombinant UMI read abundance (log10) lookup, sequence = GAGGAGGCATGGACCGGTTTTCCCGGTAATCCGTATTTGTG (site GGGGAGGCTCA) , result: 0.0134

// recombinant UMI read abundance (log10) lookup, sequence = CGCCGTACATGGACCGGTTTTCCCGGTAATCCGTATTTGCC (site CGCCGTACTGG) , result: 1.55

// recombinant UMI read abundance (log10) lookup, sequence = TCTTCCCCATGGACCGGTTTTCCCGGTAATCCGTATTTGTA (site TCTTCCCCTTA) , result: 0

// recombinant UMI read abundance (log10) lookup, sequence = GTCCTTACATGGACCGGTTTTCCCGGTAATCCGTATTTGAG (site GTCCTTACTCT) , result: 0.376

// recombinant UMI read abundance (log10) lookup, sequence = CCATCGCCATGGACCGGTTTTCCCGGTAATCCGTATTTGGA (site CCATCGCCTTC) , result: 0.0195

###

Test: recombinant UMI read abundance after kanamycin selection (control-corrected) (log10(CPM+1)); higher = more efficient recombination; extreme values may be limits of the assay; sequences stand for … in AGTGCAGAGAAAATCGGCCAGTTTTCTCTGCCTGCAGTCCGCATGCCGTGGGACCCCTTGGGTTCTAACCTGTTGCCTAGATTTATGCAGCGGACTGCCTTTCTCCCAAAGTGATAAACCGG…AGGTTGGTTTCACT; site = the 11-nt donor
Recorded recombinant UMI read abundance (log10) by entry

Worked examples follow.
GCTACGTCATGGACCGGTTTTCCCGGTAATCCGTATTTGTT (site GCTACGTCTAA)	0.808
CTATTCCCATGGACCGGTTTTCCCGGTAATCCGTATTTGTT (site CTATTCCCTAA)	1.42
CAAGCGCCATGGACCGGTTTTCCCGGTAATCCGTATTTGAG (site CAAGCGCCTCC)	0.0109
GCGAAGCCATGGACCGGTTTTCCCGGTAATCCGTATTTGAG (site GCGAAGCCTCG)	0

// recombinant UMI read abundance (log10) lookup, sequence = AATGTGCCATGGACCGGTTTTCCCGGTAATCCGTATTTGCT (site AATGTGCCTAG) , result: 0.0116

// recombinant UMI read abundance (log10) lookup, sequence = TGTACAACATGGACCGGTTTTCCCGGTAATCCGTATTTGAG (site TGTACAACTCT) , result: 0.0145

// recombinant UMI read abundance (log10) lookup, sequence = CTACAAACATGGACCGGTTTTCCCGGTAATCCGTATTTGGA (site CTACCAACTTC) , result: 0.0174

###

Test: recombinant UMI read abundance after kanamycin selection (control-corrected) (log10(CPM+1)); higher = more efficient recombination; extreme values may be limits of the assay; sequences stand for … in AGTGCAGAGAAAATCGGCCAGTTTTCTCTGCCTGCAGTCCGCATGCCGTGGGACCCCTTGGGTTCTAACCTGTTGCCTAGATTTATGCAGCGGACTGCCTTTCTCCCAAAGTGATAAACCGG…AGGTTGGTTTCACT; site = the 11-nt donor
outcome_measure: recombinant UMI read abundance (log10)
Respond numerically, and do not add a unit to the figure.

GTAGTTCCATGGACCGGTTTTCCCGGTAATCCGTATTTGGT (site GTCGTTCCTAC)	0

// recombinant UMI read abundance (log10) lookup, sequence = TTTGCGGCATGGACCGGTTTTCCCGGTAATCCGTATTTGCT (site TTTGCGGCTGG) , result: 0

// recombinant UMI read abundance (log10) lookup, sequence = CCAGGTCCATGGACCGGTTTTCCCGGTAATCCGTATTTGAT (site CCAGGTACTAT) , result: 0

// recombinant UMI read abundance (log10) lookup, sequence = CGTGGAACATGGACCGGTTTTCCCGGTAATCCGTATTTGTG (site CGTGGAACTTA) , result: 1.61

// recombinant UMI read abundance (log10) lookup, sequence = GTGTAGGCATGGACCGGTTTTCCCGGTAATCCGTATTTGTG (site GTGGAGGCTCA) , result: 0.00345

// recombinant UMI read abundance (log10) lookup, sequence = GGGACGACATGGACCGGTTTTCCCGGTAATCCGTATTTGCA (site GGGACGACTTG) , result: 2.07
